Test: Plasma pharmacokinetics in pig (release of R-100 from R-107), LCMS
Assay type: in vivo
Conditions: plasma, IV neat R-107 88 mg/kg over 6 minutes, 1 hrs post dose
PROPERTY: concentration at 1 h (ng/mL)
Give the value in ng/mL but do not write ng/mL after it.

Item: CC(=O)ON1C(C)(C)CC(CO[N+](=O)[O-])C1(C)C (stereo not shown) | concentration at 1 h: 360

----------
Assay: Plasma pharmacokinetics in pig (release of R-100 from R-107), LCMS
Type: in vivo
Conditions: plasma, IV neat R-107 88 mg/kg over 6 minutes, 2 hrs post dose
PROPERTY: concentration at 2 h (ng/mL)
# output: bare number, implied unit ng/mL

response.value for CC(=O)ON1C(C)(C)CC(CO[N+](=O)[O-])C1(C)C (stereo not shown) [R-107] (field: concentration at 2 h) = 260
